Biological target: human BACE1 (Homo sapiens)
Sequence (P56817 46-501): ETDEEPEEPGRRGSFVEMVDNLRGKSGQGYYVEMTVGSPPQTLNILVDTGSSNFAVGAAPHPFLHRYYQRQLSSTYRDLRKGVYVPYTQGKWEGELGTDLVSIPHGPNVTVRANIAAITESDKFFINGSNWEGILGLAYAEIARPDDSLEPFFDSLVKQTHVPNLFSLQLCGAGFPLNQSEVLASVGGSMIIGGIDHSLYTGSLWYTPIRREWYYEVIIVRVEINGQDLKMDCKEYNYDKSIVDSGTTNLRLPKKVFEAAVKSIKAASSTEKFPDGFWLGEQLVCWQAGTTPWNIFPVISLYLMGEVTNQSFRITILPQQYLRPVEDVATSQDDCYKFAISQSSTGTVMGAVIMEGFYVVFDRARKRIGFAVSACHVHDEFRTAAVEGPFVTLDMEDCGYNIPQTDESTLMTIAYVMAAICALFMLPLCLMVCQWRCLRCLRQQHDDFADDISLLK
Structures can show the parent of a compound that is named as a salt.
Would you kindly list IC50 for each of these compounds?

[Q] Would you kindly share the measured IC50 for Nc1cccc(Cn2c(-c3ccc(Oc4ncccn4)cc3)ccc2-c2ccccc2Cl)n1 [Example 31, hydrochloride] ?
[A] 1100 to 5000 nM

[Q] Any idea what its IC50 is? The compound is Cl.N#CCCCCOc1ccc(-c2ccc(-c3ccccc3Cl)n2Cc2cccc(N)n2)cc1 [Example 19, hydrochloride]
[A] 110 to 1000 nM

[Q] Can you share its IC50? I mean this compound: Nc1cccc(Cn2c(-c3ccc(-c4cccnc4)cc3)ccc2-c2ccccc2Cl)n1
[A] 110 to 1000 nM

[Q] Given Nc1cccc(Cn2c(-c3ccc(Br)cc3)ccc2-c2ccccc2Cl)n1 , state its recorded IC50.
[A] 1100 to 5000 nM

[Q] Item under review: Nc1nc(Cn2c(-c3ccc(Br)cc3)ccc2-c2ccccc2Cl)ccc1OCCO . Reported IC50?
[A] 110 to 1000 nM

[Q] Entry under review: CCNC(=O)c1ccc(-c2ccc(-c3ccc(F)cc3)n2Cc2cccc(N)n2)cc1 . Reported IC50?
[A] 1100 to 5000 nM

[Q] Looking for the measured IC50 of CC(=O)c1ccc(Oc2ccc(-c3ccc(-c4ccccc4Cl)n3Cc3cccc(N)n3)cc2)cc1 [Example 37, hydrochloride] , can you help?
[A] 110 to 1000 nM

[Q] Value lookup for IC50; key = Nc1cccc(Cn2c(-c3ccc(Oc4nccs4)cc3)ccc2-c2ccccc2Cl)n1 [Example 32, hydrochloride]
[A] 110 to 1000 nM
